- Tested on: Respiratory Syncytial Virus (RSV) long strain
- Assay method text: microbe, parasite or virus in culture
- Format: cell-based
- Condition context: human respiratory syncytial virus, HEp-2, 120 h, read-out: 50% effective concentration (EC50), HEp-2 cells infected with RSV long strain, 5 days, CCK-8 readout; Tables A and B list compounds by EC50 band
pEC50: −log10 of the molar value.
Readout label: pEC50

### Prompt Could you share which pEC50 value was measured for CC(C)(N)c1cc(-c2ccc(F)c(Cl)c2)nc(C(O)(CNC(=O)c2coc(Cl)n2)C(F)(F)F)c1 (stereo not shown) ?
### Response 4.30 to 6.00

### Prompt What measured pEC50 goes with COc1cc(C(=O)NCC(O)(CN2CCCC2)c2ccc(OC)c(-c3ccc(F)c(Cl)c3)n2)ccc1OCCO (stereo not shown) ?
### Response 4.30 to 6.00

### Prompt Query: pEC50; subject: COc1cc(C(=O)NCC(F)(CO)c2ccc(OC)c(-c3ccc(F)c(Cl)c3)n2)ccc1OC1CC1 (stereo not shown)
### Response > 6.00

### Prompt Need pEC50, item COc1cc(C(=O)NCC(N)(c2ccc(OC)c(-c3ccc(F)c(Cl)c3)n2)C(F)(F)F)ccc1OC1CC1 (stereo not shown)
### Response > 6.00

### Prompt Could you tell me which pEC50 is on file for COc1ccc(C(O)(CNC(=O)c2ccc(OC3CC3)c(Cl)c2)C(F)(F)F)nc1-c1ccc(F)c(Cl)c1 (stereo not shown) ?
### Response 4.30 to 6.00

### Prompt Any idea what pEC50 was measured for COc1cc(C(=O)NCC(C)(F)c2ccc(OC)c(-c3ccc(F)c(Cl)c3)n2)ccc1OCCF (stereo not shown) ?
### Response > 6.00

### Prompt Fill blank: measured pEC50 of the molecule CC(C)(N)c1cc(-c2ccc(F)c(Cl)c2)nc(C(O)(CNC(=O)c2ccc3c(c2)OC(F)(F)O3)C(F)(F)F)c1 (stereo not shown) is ____.
### Response 4.30 to 6.00
